Test: Activity of Aminoglycoside […] 2a using ATP/GTP as second substrate by spectrophotometric assay
Use 20 µM as the dividing line for Km, with the line itself on the Fulfilled side and lower values as Not fulfilled.

Compound: CN[C@@H]1[C@@H](O)[C@@H](O[C@@H]2[C@@H](O)[C@H](O[C@H]3O[C@H](CN)[C@@H](O)[C@H](O)[C@H]3O)[C@@H](N)C[C@H]2NC(=O)[C@@H](O)CN)OC[C@]1(C)O
Assigned class: Not fulfilled

Compound: NCC[C@H](O)C(=O)N[C@@H]1C[C@H](N)[C@@H](O[C@H]2O[C@H](CN)[C@@H](O)[C@H](O)[C@H]2O)[C@H](O)[C@H]1O[C@H]1O[C@H](CO)[C@@H](O)[C@H](N)[C@H]1O
Assigned class: Fulfilled

Compound: NC[C@@H]1O[C@@H](O[C@H]2[C@H](O)[C@@H](O[C@H]3O[C@H](CO)[C@@H](O)[C@H](N)[C@H]3O)[C@H](N)C[C@@H]2N)[C@@H](O)[C@H](O)[C@H]1O
Assigned class: Not fulfilled

Compound: NC[C@H]1O[C@H](O[C@H]2[C@H](O)[C@@H](O[C@H]3O[C@H](CO)[C@@H](O)[C@H](N)[C@H]3O)[C@H](N)C[C@@H]2N)[C@H](N)C[C@@H]1O
Assigned class: Not fulfilled

Compound: NC[C@@H]1CC[C@@H](N)[C@@H](O[C@H]2[C@H](O)[C@@H](O[C@H]3O[C@H](CO)[C@@H](O)[C@H](N)[C@H]3O)[C@H](N)C[C@@H]2N)O1
Assigned class: Not fulfilled

Compound: Nc1ncnc2c1ncn2[C@@H]1O[C@H](COP(=O)(O)OP(=O)(O)OP(=O)(O)O)[C@@H](O)[C@H]1O
Assigned class: Not fulfilled

Compound: Nc1nc(=O)c2ncn([C@@H]3O[C@H](COP(=O)(O)OP(=O)(O)OP(=O)(O)O)[C@@H](O)C3O)c2[nH]1 (single isomer, unassigned)
Assigned class: Fulfilled
